target-system: AAV9 (adeno-associated virus serotype 9)
measurement-notes: SPR, AAV on CM5 chip
Each entry below lists one item and its recorded kon value.
readout-name: kon (M⁻¹ s⁻¹)

binder: A4-C4 (bispecific antibody) VQLQESGGGLVQAGGSLRLSCAASGSRFSINTMGWYRQAPGKQREFVATVTRGGNTNYAESVKGRFTISRDNAKNTVYLQMNSLRPEDTAVYYCHVDEVRDSSWTTSNIWGQGTQVTVSSGGGGSGGGGSGGGGSVQLQESGGGLVQAGGSLRLSCAASGSRFSINTMGWYRQAPGKQREFVATVTRGGNTNYAESVKGRFTISRDNAKNTVYLQMNSLRPEDTAVYYCHVDEVRDSSWTTSNIWGQGTQVTVSSGGGGSGGGGSGGGGSVQLQESGGGLVQPGGSLRLSCAASGSNFRINTMGWYRQAPGKQRELVATVTRGGSTNYADSVKGRFTISRDNPKDTVYLQMNSLRPEDTAVYYCHVDEVRESSWTTSNLWGQGTQVTVSS
readout-name: kon
val: 165000
--
binder: A4-C5 (bispecific antibody) VQLQESGGGLVQPGGSLRLSCAASGSNFRINTMGWYRQAPGKQRELVATVTRGGSTNYADSVKGRFTISRDNPKNTVYLQMNSLRPEDTAVYYCHVDEVRESSWTTSNLWGQGTQVTVSSGGGGSGGGGSGGGGSVQLQESGGGLVQPGGSLRLSCAASGSNFSINTMGWYRQAPGKQRELVATVTRGGDTNYADSVKGRFTISRDNAKNTVYLQMNSLRPEDTAVYYCHVDEIRESSWTTSNLWGQGTQVTVSSGGGGSGGGGSGGGGSVQLQESGGGLVQPGGSLRLSCAASGSNFRINTMGWYRQAPGKQRELVATVTRGGSTNYADSVKGRFTISRDNPKNTVYLQMNSLRPEDTAVYYCHVDEVRESSWTTSNLWGQGTQVTVSS
readout-name: kon
val: 119000
--
binder: A4-B1 (VHH) VQLQESGGGLVQPGGSLRLSCAASGSIFSINLMGWYRQAPGKQRELVATITRGGNTNYAGSVKGRFTISRDNAKNTVYLQMNSLRPEDTAVYYCHVDEVRQSSWTTSNLWGQGTQVTVSSGGGGSGGGGSGGGGSVQLQESGGGLVQPGGSLRLSCAASGSIFSINLMGWYRQAPGKQRELVATITRGGNTNYAGSVKGRFTISRDNAKNTVYLQMNSLRPEDTAVYYCHVDEVRQSSWTTSNLWGQGTQVTVSS
readout-name: kon
val: 196000
--
binder: A4-C7 (bispecific antibody) VQLQESGGGLVQPGGSLRLSCAASGSNFSINTMGWYRQAPGKQRELVATVTRGGDTNYADSVKGRFTISRDNAKNTVYLQMNSLRPEDTAVYYCHVDEIRESSWTTSNLWGQGTQVTVSSGGGGSGGGGSGGGGSVQLQESGGGLVQPGGSLRLSCAASGSNFRINTMGWYRQAPGKQRELVAPVTRGGSTNYADSVKGRFTISRDNAKNTVYLQMNSLRPEDTAVYYCHVDEVRESSWTTSNLWGQGTQVTVSSGGGGSGGGGSGGGGSVQLQESGGGLVQPGGSLRLSCAASGSSFTINTMGWYRQAPGKQRELVAAVTRGGSTNYAGSVKGRFTISRDNAKNTIYLQMNSLRPEDTAVYYCHVDEIRQSSWTTSNLWGQGTQVTVSS
readout-name: kon
val: 137000

Hey, just so you know, these numbers are from patent US20260193326A1.
